Target: 5-hydroxytryptamine receptor 2A (Homo sapiens, UniProt P28223)
Sequence (P28223 whole entry): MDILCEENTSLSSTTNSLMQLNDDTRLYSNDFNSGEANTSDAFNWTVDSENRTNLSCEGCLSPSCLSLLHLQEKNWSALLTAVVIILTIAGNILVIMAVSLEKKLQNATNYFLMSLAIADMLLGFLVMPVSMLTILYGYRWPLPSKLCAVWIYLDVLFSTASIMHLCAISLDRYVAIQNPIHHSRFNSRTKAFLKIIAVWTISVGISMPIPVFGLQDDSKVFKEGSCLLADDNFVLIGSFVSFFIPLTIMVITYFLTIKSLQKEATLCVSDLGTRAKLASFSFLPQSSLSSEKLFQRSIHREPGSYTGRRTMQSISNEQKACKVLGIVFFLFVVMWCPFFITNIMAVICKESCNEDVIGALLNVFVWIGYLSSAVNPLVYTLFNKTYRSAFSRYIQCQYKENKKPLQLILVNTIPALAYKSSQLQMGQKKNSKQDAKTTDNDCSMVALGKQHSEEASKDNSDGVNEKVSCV
Assay: Binding affinity towards human cloned 5-hydroxytryptamine receptor 2A in HEK293 cells, using [3H]ketanserin as radioligand.
observed property: pKi
Schema: pKi number; meaning minus log10 of the concentration expressed in molar units.

(Q) Kindly indicate its recorded pKi. Item: COc1cc2c(cc1C(F)(F)F)N(C(=O)Nc1ccc(Cl)c(-c3cccnc3)c1)CC2
(A) 5.90

(Q) Kindly indicate its recorded pKi. Item: COc1cc2c(cc1C(F)(F)F)N(C(=O)Nc1cc(-c3ccccc3)cc(-c3cccnc3)c1)CC2
(A) 6.20

(Q) Kindly indicate its recorded pKi. Item: COc1cc2c(cc1C(F)(F)F)N(C(=O)Nc1cccc(-c3cccnc3C)c1)CC2
(A) 6.30

(Q) Kindly indicate its recorded pKi. Item: COc1cc2c(cc1C(F)(F)F)N(C(=O)Nc1ccc(C(C)(C)C)c(-c3cccnc3)c1)CC2
(A) 6.00

(Q) Kindly indicate its recorded pKi. Item: COc1cc2c(cc1C(F)(F)F)N(C(=O)Nc1cccc(-c3cccnc3)c1Cl)CC2
(A) 6.60

(Q) Kindly indicate its recorded pKi. Item: COc1cc2c(cc1C(F)(F)F)N(C(=O)Nc1cncc(-c3cccnc3)c1)CC2
(A) 7.20

(Q) Kindly indicate its recorded pKi. Item: COc1ccc(NC(=O)N2CCc3cc(OC)c(C(F)(F)F)cc32)cc1-c1cccnc1
(A) 6.70

(Q) Kindly indicate its recorded pKi. Item: COc1cc2c(cc1C(F)(F)F)N(C(=O)Nc1cccc(-c3ccccn3)c1)CC2
(A) 6.30

(Q) Kindly indicate its recorded pKi. Item: CSc1cc2c(cc1C(F)(F)F)N(C(=O)Nc1cccc(-c3cccnc3)c1)CC2
(A) 7.10

(Q) Kindly indicate its recorded pKi. Item: COc1cc2c(cc1C(F)(F)F)N(C(=O)Nc1cncc(-c3ccccc3)c1)CC2
(A) 5.80

(Q) Kindly indicate its recorded pKi. Item: COc1cc2c(cc1C(F)(F)F)N(C(=O)Nc1cccc(-c3cnccc3C)c1)CC2
(A) 6.60

(Q) Kindly indicate its recorded pKi. Item: COc1cc2c(cc1C(F)(F)F)N(C(=O)Nc1cncc(-c3cnccc3C)c1)CC2
(A) 7.00

(Q) Kindly indicate its recorded pKi. Item: COc1cc2c(cc1C(F)(F)F)N(C(=O)Nc1cccc(-c3cccnc3)c1)CC2
(A) 6.70

(Q) Kindly indicate its recorded pKi. Item: COc1cc2c(cc1C(F)(F)F)N(C(=O)Nc1cc(F)cc(-c3cccnc3)c1)CC2
(A) 6.90

(Q) Kindly indicate its recorded pKi. Item: Cc1cc2c(cc1C(F)(F)F)N(C(=O)Nc1ccc(Oc3cccnc3C)nc1)CC2
(A) 6.80

(Q) Kindly indicate its recorded pKi. Item: CCc1cc(NC(=O)N2CCc3cc(OC)c(C(F)(F)F)cc32)cc(-c2cccnc2)c1
(A) 6.70

---

Would you kindly list IC50 for each of these compounds?
Target: Cytochrome P450 1A2 (Homo sapiens)
Sequence (P05177 whole entry): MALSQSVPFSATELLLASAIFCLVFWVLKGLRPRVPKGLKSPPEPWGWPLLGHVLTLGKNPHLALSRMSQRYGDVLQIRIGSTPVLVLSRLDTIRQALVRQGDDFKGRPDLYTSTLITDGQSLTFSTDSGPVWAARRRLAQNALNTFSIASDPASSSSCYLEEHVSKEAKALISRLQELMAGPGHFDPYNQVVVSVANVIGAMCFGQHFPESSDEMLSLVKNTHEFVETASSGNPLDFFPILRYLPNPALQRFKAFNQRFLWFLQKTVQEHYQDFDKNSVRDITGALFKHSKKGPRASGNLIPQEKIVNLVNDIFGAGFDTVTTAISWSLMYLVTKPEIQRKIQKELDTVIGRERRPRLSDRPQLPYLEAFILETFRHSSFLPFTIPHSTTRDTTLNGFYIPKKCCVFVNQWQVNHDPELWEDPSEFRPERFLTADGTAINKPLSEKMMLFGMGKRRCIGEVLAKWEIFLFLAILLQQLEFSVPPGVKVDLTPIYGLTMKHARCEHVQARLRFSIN
Experiment: Inhibition of heterologously expressed human cytochrome P450 1A2.
Type: ADME

(Q) Kindly indicate its recorded IC50. Item: CCc1cc(NC(=O)N2CCc3cc(OC)c(C(F)(F)F)cc32)cc(-c2cccnc2)c1
(A) 6 µM

(Q) Kindly indicate its recorded IC50. Item: COc1cc2c(cc1C(F)(F)F)N(C(=O)Nc1ccc(Oc3cccnc3C)nc1)CC2
(A) > 100 µM

(Q) Kindly indicate its recorded IC50. Item: COc1cc2c(cc1C(F)(F)F)N(C(=O)Nc1ccc(Cl)c(-c3cnccc3C)c1)CC2
(A) 11 µM

(Q) Kindly indicate its recorded IC50. Item: COc1cc2c(cc1C(F)(F)F)N(C(=O)Nc1ccc(C)c(-c3cnccc3C)c1)CC2
(A) > 100 µM

(Q) Kindly indicate its recorded IC50. Item: COc1cc2c(cc1C(F)(F)F)N(C(=O)Nc1cc(Br)cc(-c3cccnc3)c1)CC2
(A) 7 µM

---

Target: 5-hydroxytryptamine receptor 2B (Homo sapiens)
Sequence (P41595 whole entry): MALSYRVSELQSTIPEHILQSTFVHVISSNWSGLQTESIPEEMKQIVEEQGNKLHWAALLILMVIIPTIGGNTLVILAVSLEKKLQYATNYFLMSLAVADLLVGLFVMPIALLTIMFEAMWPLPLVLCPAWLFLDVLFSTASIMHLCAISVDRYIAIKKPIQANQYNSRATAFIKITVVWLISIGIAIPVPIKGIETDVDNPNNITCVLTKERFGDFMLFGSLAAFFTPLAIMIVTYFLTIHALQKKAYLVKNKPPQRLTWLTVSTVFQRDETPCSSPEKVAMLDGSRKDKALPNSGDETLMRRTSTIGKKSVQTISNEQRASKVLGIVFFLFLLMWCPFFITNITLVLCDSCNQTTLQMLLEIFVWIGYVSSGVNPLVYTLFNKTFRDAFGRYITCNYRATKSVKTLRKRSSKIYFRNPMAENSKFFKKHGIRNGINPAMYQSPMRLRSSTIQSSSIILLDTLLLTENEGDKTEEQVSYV
Assay: Binding affinities towards human cloned 5-hydroxytryptamine 2B receptor in HEK293 cells using [3H]5-HT as radioligand.
Assay type: cell-based
observed property: log10 Ki (log10 of the value in nM)
Note: values are log10 of Ki expressed in nM.

(Q) Kindly indicate its recorded log10 Ki. Item: COc1cc2c(cc1C(F)(F)F)N(C(=O)Nc1cc(F)c(C)c(-c3cccnc3)c1)CC2
(A) 0.90

(Q) Kindly indicate its recorded log10 Ki. Item: COc1cc2c(cc1C(F)(F)F)N(C(=O)Nc1cccc(-c3cccnc3C)c1)CC2
(A) 1.20

(Q) Kindly indicate its recorded log10 Ki. Item: COc1cc2c(cc1C(F)(F)F)N(C(=O)Nc1ccc(Cl)c(-c3cccnc3)c1)CC2
(A) 1.40

(Q) Kindly indicate its recorded log10 Ki. Item: Cc1cc2c(cc1C(F)(F)F)N(C(=O)Nc1ccc(Oc3cccnc3C)nc1)CC2
(A) 2.00

(Q) Kindly indicate its recorded log10 Ki. Item: COc1ccc(NC(=O)N2CCc3cc(OC)c(C(F)(F)F)cc32)cc1-c1cccnc1
(A) 1.20

(Q) Kindly indicate its recorded log10 Ki. Item: COc1cc2c(cc1C(F)(F)F)N(C(=O)Nc1ccc(Oc3cccnc3)nc1)CC2
(A) 1.30

(Q) Kindly indicate its recorded log10 Ki. Item: COc1cc2c(cc1C(F)(F)F)N(C(=O)Nc1cc(F)cc(-c3cccnc3)c1)CC2
(A) 1.00

(Q) Kindly indicate its recorded log10 Ki. Item: COc1cc2c(cc1C(F)(F)F)N(C(=O)Nc1cccc(-c3cccnc3)c1Cl)CC2
(A) 0.70

(Q) Kindly indicate its recorded log10 Ki. Item: COc1cc2c(cc1C(F)(F)F)N(C(=O)Nc1cc(-c3cccnc3)ccc1F)CC2
(A) 3.30

---

Target: 5-hydroxytryptamine receptor 2B (Homo sapiens)
Test: Binding affinities towards human cloned 5-hydroxytryptamine 2B receptor in HEK293 cells using [3H]5-HT as radioligand.
Assay type: cell-based
Would you kindly list Ki for each of these compounds?
Numeric answer only, unit µM assumed.

(Q) Kindly indicate its recorded Ki. Item: COc1cc2c(cc1C(F)(F)F)N(C(=O)Nc1cc(Br)cc(-c3cccnc3)c1)CC2
(A) 0.02

(Q) Kindly indicate its recorded Ki. Item: COc1cc2c(cc1C(F)(F)F)N(C(=O)Nc1ccc(C)c(-c3cccnc3)c1)CC2
(A) 0.00501

(Q) Kindly indicate its recorded Ki. Item: COc1cc2c(cc1C(F)(F)F)N(C(=O)Nc1cc3c(c(-c4cccnc4)c1)OCC3)CC2
(A) 0.00794

(Q) Kindly indicate its recorded Ki. Item: COc1cc2c(cc1C(F)(F)F)N(C(=O)Nc1cccc(-c3c(C)ccnc3C)c1)CC2
(A) 0.0126

(Q) Kindly indicate its recorded Ki. Item: COc1cc2c(cc1C(F)(F)F)N(C(=O)Nc1ccc(C(C)(C)C)c(-c3cccnc3)c1)CC2
(A) 0.0398

(Q) Kindly indicate its recorded Ki. Item: COc1cc2c(cc1C(F)(F)F)N(C(=O)Nc1cc(-c3ccccc3)cc(-c3cccnc3)c1)CC2
(A) 0.0158

(Q) Kindly indicate its recorded Ki. Item: COc1cc2c(cc1C(F)(F)F)N(C(=O)Nc1ccc(-c3ccncc3)cc1)CC2
(A) 0.0126

(Q) Kindly indicate its recorded Ki. Item: CCc1cc(NC(=O)N2CCc3cc(OC)c(C(F)(F)F)cc32)cc(-c2cccnc2)c1
(A) 0.01

(Q) Kindly indicate its recorded Ki. Item: COc1cc2c(cc1C(F)(F)F)N(C(=O)Nc1ccc(-c3cccnc3)cc1)CC2
(A) 0.01

(Q) Kindly indicate its recorded Ki. Item: COc1cc2c(cc1C(F)(F)F)N(C(=O)Nc1cccc(-c3cccnc3)c1)CC2
(A) 0.00794

(Q) Kindly indicate its recorded Ki. Item: COc1cc2c(cc1C(F)(F)F)N(C(=O)Nc1ccc(Oc3cccnc3C)nc1)CC2
(A) 0.0501

(Q) Kindly indicate its recorded Ki. Item: COc1cc2c(cc1C(F)(F)F)N(C(=O)Nc1ccc(C)c(-c3cnccc3C)c1)CC2
(A) 0.00398

---

Reported values: IC50 for Cytochrome P450 2C9 (Homo sapiens, UniProt P11712), one per item.
Numeric answer only, unit µM assumed.

(Q) Kindly indicate its recorded IC50. Item: COc1cc2c(cc1C(F)(F)F)N(C(=O)Nc1cc(F)cc(-c3cccnc3)c1)CC2
(A) 82

(Q) Kindly indicate its recorded IC50. Item: Cc1cc2c(cc1C(F)(F)F)N(C(=O)Nc1ccc(Oc3cccnc3C)nc1)CC2 [SB-243213]
(A) 23

---

Biological target: Serotonin receptor (2b and 2c) (Homo sapiens) (UniProt P41595+P28335)
Test: Selectivity index determined from the binding affinities of 5-HT2C and 5-HT2B.
Assay type: protein assay
observed property: Selectivity
Respond using a number only.

(Q) Kindly indicate its recorded Selectivity. Item: COc1cc2c(cc1C(F)(F)F)N(C(=O)Nc1cc(-c3ccccc3)cc(-c3cccnc3)c1)CC2
(A) 6

(Q) Kindly indicate its recorded Selectivity. Item: COc1cc2c(cc1C(F)(F)F)N(C(=O)Nc1cncc(-c3ccncc3)c1)CC2
(A) 16

(Q) Kindly indicate its recorded Selectivity. Item: COc1cc2c(cc1C(F)(F)F)N(C(=O)Nc1ccc(-c3ccncc3)cc1)CC2
(A) 3

(Q) Kindly indicate its recorded Selectivity. Item: COc1cc2c(cc1C(F)(F)F)N(C(=O)Nc1cccc(-c3cccnc3C)c1)CC2
(A) 3

(Q) Kindly indicate its recorded Selectivity. Item: COc1cc2c(cc1C(F)(F)F)N(C(=O)Nc1cc(-c3cccnc3)ccc1F)CC2
(A) 1

(Q) Kindly indicate its recorded Selectivity. Item: CSc1cc2c(cc1C(F)(F)F)N(C(=O)Nc1cccc(-c3ccncc3)c1)CC2
(A) 8

(Q) Kindly indicate its recorded Selectivity. Item: COc1cc2c(cc1C(F)(F)F)N(C(=O)Nc1cncc(-c3cnccc3C)c1)CC2
(A) 15

(Q) Kindly indicate its recorded Selectivity. Item: COc1cc2c(cc1C(F)(F)F)N(C(=O)Nc1ccc(-c3cccnc3)nc1)CC2
(A) 2

(Q) Kindly indicate its recorded Selectivity. Item: COc1cc2c(cc1C(F)(F)F)N(C(=O)Nc1cccc(-c3cccnc3)c1Cl)CC2
(A) 0.5

(Q) Kindly indicate its recorded Selectivity. Item: COc1cc2c(cc1C(F)(F)F)N(C(=O)Nc1cncc(-c3c(F)cccc3F)c1)CC2
(A) 4
